Target: FGFR2 N549H (Homo sapiens, UniProt P21802, N549H)
Construct: biochemical assays using purified intracellular domains of the respective isoforms
Sequence (P21802 399-821 N549H limits assumed): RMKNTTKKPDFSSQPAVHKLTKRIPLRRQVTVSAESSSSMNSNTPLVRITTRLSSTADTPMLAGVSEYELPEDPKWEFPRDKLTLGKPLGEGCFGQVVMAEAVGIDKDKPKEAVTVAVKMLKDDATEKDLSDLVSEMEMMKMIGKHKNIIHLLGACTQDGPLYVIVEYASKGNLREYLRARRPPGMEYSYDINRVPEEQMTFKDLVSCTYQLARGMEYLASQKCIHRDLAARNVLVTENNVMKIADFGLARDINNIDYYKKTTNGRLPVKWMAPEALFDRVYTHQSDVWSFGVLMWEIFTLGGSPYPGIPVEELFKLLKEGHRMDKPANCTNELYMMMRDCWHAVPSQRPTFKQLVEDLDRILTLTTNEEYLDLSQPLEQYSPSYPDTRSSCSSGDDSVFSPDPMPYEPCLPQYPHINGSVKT
Test: FGFR mutant enzyme assay (HTRF KinEASE-TK)
Settings: ATP 0.9 uM
quantity kind: IC50 (nM)

C[C@@H](Oc1cc(-c2cnn(C)c2N)cn2ncc(C#N)c12)c1ccc(F)cn1
2

I: Cc1c(-c2cc(O[C@H](C)c3ccc(F)cn3)c3c(C#N)cnn3c2)cnn1[C@H]1CCCN(C[C@H](O)CO)C1
II: Cc1c(-c2cc(O[C@@H](C)c3ccc(F)cn3)c3c(C#N)cnn3c2)cnn1[C@H]1CC[C@H](O)CC1
III: Cc1c(-c2cc(O[C@H](C)c3ccc(F)cn3)c3c(C#N)cnn3c2)cnn1[C@H]1CCCN(C(=O)C(C)(C)O)C1
IV: C[C@H](O)C(=O)N1CCC(n2cc(-c3cc(O[C@H](C)c4ccc(F)cn4)c4c(C#N)cnn4c3)cn2)CC1
Ordering: ascending IC50. Order the labels as requested and list them. IV, I, III, II
